- Assay details: self-splicing fitness, log relative to wild type (ln ratio); higher = more splicing; Tetrahymena group I intron in knt gene, E. coli kanamycin selection, DiMSum; sequences stand for … in CUCUCU…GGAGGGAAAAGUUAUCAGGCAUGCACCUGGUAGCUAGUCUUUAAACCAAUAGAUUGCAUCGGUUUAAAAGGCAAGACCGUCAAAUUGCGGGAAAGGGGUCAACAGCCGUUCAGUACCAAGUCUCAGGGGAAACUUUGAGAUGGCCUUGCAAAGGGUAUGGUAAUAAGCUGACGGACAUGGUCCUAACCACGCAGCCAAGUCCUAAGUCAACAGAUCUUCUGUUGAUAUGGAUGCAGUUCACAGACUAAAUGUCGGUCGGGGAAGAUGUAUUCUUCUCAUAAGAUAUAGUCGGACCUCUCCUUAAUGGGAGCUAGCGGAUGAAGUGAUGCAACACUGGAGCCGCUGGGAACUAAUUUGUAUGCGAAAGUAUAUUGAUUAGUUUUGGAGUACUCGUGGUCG;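 note: selection with 25 µg/mL kanamycin versus none on LB agar overnight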
- Study conditions: 37 °C
Threshold check on self-splicing fitness (ln): at or above -2 gives Yes, strictly below gives No.

The examples below pair each entry with its known result.
Monomer sequence | Class name
UCACAGCAAUAUUACGUGCA | Yes
GUCGAGCAAUAUUACGCAGU | Yes
AUCCAGCAAUAUUACGGGUU | No
ACUAAGCAAUAUUACGCACG | Yes
CCAAAGCAAUAUUACGGGCC | No
GCCCAGCAAUAUUACGAUAU | Yes

State whether the measured self-splicing fitness (ln) reaches -2, counting equality as reaching it, for `GCAAAGCAAUAUUACGUUCC`
Yes

Please tell me: is the sequence `UCCAAGCAAUAUUACGCAGA` at or over -2 in terms of self-splicing fitness (ln)?
Yes

self-splicing fitness (ln) >= -2 for `GUAGAGCAAUAUUACGCGGC` ?
No

----------
List of self-splicing fitness (ln) values.
- Assay details: self-splicing fitness, log relative to wild type (ln ratio); higher = more splicing; Tetrahymena group I intron in knt gene, E. coli kanamycin selection, DiMSum; sequences stand for … in CUCUCU…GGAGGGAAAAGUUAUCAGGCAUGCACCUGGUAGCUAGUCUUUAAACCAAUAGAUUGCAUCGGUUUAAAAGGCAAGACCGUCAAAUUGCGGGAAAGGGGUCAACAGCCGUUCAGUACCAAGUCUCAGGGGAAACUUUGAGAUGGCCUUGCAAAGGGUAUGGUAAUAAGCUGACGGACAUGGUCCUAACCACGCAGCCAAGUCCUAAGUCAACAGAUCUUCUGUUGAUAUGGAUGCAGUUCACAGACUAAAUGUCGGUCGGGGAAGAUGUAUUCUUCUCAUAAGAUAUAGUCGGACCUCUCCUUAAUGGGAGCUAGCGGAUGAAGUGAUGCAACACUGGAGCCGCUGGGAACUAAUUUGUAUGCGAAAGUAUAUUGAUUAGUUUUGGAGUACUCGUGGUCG
- Study conditions: 30 °C
Keep it simple and answer with nothing but the number.

Below: 5 sequences and their reported self-splicing fitness (ln).
Monomer sequence | self-splicing fitness (ln)
CGACAGCAAUAUUACGGGAC | -4.58
UUGGAGCAAUAUUACGAUUA | -0.16
CUCCAGCAAUAUUACGGCAG | -4.58
CCCCAGCAAUAUUACGACCG | -4.12
AGGUAGCAAUAUUACGUAGG | -3.67

Given the entry `ACGCAGCAAUAUUACGUGUG` , report its measured self-splicing fitness (ln).
-2.86

So what does the record say about self-splicing fitness (ln) for `AUUAAGCAAUAUUACGAAUA` ?
-1.29

// lookup self-splicing fitness (ln) for `CGCUAGCAAUAUUACGAGCG`
-4.02

Dear colleague, I am looking for the recorded self-splicing fitness (ln) of the following sequence: `UUCUAGCAAUAUUACGAUAU`
-2.27

Given `ACAUAGCAAUAUUACGAGUA` , state its recorded self-splicing fitness (ln).
-3.54

----------
- Assay details: self-splicing fitness, log relative to wild type (ln ratio); higher = more splicing; Tetrahymena group I intron in knt gene, E. coli kanamycin selection, DiMSum; sequences stand for … in CUCUCU…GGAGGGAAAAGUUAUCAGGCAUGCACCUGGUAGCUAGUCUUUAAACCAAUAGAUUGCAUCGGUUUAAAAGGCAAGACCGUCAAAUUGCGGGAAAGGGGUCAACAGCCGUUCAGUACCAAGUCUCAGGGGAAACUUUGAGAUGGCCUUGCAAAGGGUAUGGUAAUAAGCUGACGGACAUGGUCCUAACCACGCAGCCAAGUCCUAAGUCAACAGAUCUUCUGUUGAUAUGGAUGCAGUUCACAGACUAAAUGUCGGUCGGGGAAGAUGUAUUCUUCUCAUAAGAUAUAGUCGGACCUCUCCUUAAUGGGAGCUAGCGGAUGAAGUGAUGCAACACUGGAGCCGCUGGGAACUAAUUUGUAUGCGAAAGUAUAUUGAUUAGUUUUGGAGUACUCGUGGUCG
- Study conditions: 37 °C
Each entry below carries its reported self-splicing fitness (ln).
I'd appreciate a reply containing only the number, no unit.

Monomer sequence | self-splicing fitness (ln)
CGGUAGCAAUAUUACGAAUG | 0.205
AGGAAGCAAUAUUACGUAUG | -2.3
GAGCAGCAAUAUUACGGAGU | -3.07
CGCGAGCAAUAUUACGUCGU | -3.58

Data request, read-out self-splicing fitness (ln), for `CUGUAGCAAUAUUACGCGGC`
-2.14

# input sequence: `AAUCAGCAAUAUUACGCUUA` ; wanted: its self-splicing fitness (ln)
0.347

Requested read-out: self-splicing fitness (ln). Entry: `ACUGAGCAAUAUUACGCUGG`
-1.4

Using the record for `ACUCAGCAAUAUUACGUUCC` , report its self-splicing fitness (ln).
-0.606

For `AAGAAGCAAUAUUACGGUAG` , what is its reported self-splicing fitness (ln)?
-1.83

Looking for the measured self-splicing fitness (ln) of `UAGGAGCAAUAUUACGGAAU` , can you help?
-2.51

Form field: reported self-splicing fitness (ln) of `GAAAAGCAAUAUUACGGCGA`
-0.204

Which value of self-splicing fitness (ln) has been reported for `CUAGAGCAAUAUUACGAAAG` in the records?
0.557

// self-splicing fitness (ln) lookup, key: `AUGCAGCAAUAUUACGUCGG`
-1.91

# lookup: self-splicing fitness (ln) of `UAGAAGCAAUAUUACGAGGA`
-2.06

Report self-splicing fitness (ln) for `GGCAAGCAAUAUUACGCGCG` please.
-0.495

Look at this sequence and give its reported self-splicing fitness (ln). `CCAUAGCAAUAUUACGUGCU`
-2.1

Any idea what self-splicing fitness (ln) was measured for `UUAGAGCAAUAUUACGAGCG` ?
-0.824

What value of self-splicing fitness (ln) has been reported for the following sequence? `GGAGAGCAAUAUUACGUCGC`
0.588

If you can, please state the reported self-splicing fitness (ln) value of `UUUAAGCAAUAUUACGGGUA` .
-0.422

Requested field: self-splicing fitness (ln). Item: `CUCAAGCAAUAUUACGACAA`
-1.89

Param item = `GAGUAGCAAUAUUACGGUCG` ; retrieve measured self-splicing fitness (ln).
-0.697

----------
- Assay details: self-splicing fitness, log relative to wild type (ln ratio); higher = more splicing; Tetrahymena group I intron in knt gene, E. coli kanamycin selection, DiMSum; sequences stand for … in CUCUCU…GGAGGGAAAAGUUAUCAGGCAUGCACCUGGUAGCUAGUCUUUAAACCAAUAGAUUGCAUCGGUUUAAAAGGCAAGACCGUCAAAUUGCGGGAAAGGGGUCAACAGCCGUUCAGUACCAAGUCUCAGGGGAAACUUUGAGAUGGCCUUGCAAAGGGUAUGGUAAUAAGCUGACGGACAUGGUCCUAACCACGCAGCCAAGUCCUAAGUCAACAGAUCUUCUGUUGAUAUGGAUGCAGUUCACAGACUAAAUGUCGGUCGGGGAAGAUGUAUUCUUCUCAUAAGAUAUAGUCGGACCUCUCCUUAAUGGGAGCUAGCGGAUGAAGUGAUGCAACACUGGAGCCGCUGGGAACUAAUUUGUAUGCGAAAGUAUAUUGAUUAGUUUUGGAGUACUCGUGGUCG
- Study conditions: 30 °C
Please mark Y if the recorded self-splicing fitness (ln) is equal to or greater than -2, and N if it falls below.

Monomer sequence | Class name
AGGAAGCAAUAUUACGACUA | Y
UGGAAGCAAUAUUACGUCCC | Y
AUAUAGCAAUAUUACGCUGA | Y
UGUAAGCAAUAUUACGAUUU | Y
GUGGAGCAAUAUUACGCCAA | N

Can `UUAAAGCAAUAUUACGUAAU` be said to have self-splicing fitness (ln) at or above -2?
N

Given the entry `CCGUAGCAAUAUUACGCGAU` , answer whether its self-splicing fitness (ln) meets or surpasses -2.
N

Answer whether self-splicing fitness (ln) of `GCACAGCAAUAUUACGACGG` is greater than or equal to -2.
Y

Please tell me: is the sequence `CUGGAGCAAUAUUACGUAGG` at or over -2 in terms of self-splicing fitness (ln)?
Y

Please tell me: is the sequence `GCCAAGCAAUAUUACGAGGC` at or over -2 in terms of self-splicing fitness (ln)?
N

Record `ACCGAGCAAUAUUACGUAGG` ; criterion: self-splicing fitness (ln) no lower than -2. Met?
N

Assess whether reported self-splicing fitness (ln) for `CUGAAGCAAUAUUACGUUAA` sits at -2 or higher.
N

Threshold query (self-splicing fitness (ln) >= -2) on `GUUCAGCAAUAUUACGCCAU`
N

Quick check: does `UUAAAGCAAUAUUACGCAAA` have self-splicing fitness (ln) greater than or equal to -2?
Y

Can `GACAAGCAAUAUUACGAACG` be said to have self-splicing fitness (ln) at or above -2?
Y
